Data credit: patent US20220017611A1

target: T1, recombinant full-length Tau protein, longest isoform (Tau 2N4R) (human, UniProt P10636-8 1-441, biotinylated with NHS-biotin for SPR; 15N-labelled for NMR); experiment: SPR (Biacore T200), single-cycle kinetics, biotinylated Tau on streptavidin chip, VHH injected 0.125-2 µM
T1 construct: range 1-441; Expressed in E. coli from pET15b-Tau; also called biotinylated-Tau; 15N-Tau
T1 sequence (P10636 other isoform, or with tags, fused parts or gaps limits assumed): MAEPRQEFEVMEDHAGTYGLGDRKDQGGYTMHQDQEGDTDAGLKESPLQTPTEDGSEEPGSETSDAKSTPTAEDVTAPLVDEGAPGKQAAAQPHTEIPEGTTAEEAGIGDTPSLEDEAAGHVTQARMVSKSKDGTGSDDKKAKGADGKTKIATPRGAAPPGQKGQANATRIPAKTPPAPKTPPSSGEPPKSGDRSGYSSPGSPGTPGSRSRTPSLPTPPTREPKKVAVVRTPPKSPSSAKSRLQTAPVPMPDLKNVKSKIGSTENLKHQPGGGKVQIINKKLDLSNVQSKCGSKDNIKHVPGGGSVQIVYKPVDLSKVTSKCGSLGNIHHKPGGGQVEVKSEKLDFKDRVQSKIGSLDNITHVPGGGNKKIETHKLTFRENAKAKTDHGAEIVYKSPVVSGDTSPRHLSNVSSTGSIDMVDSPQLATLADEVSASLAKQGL
Measured koff of individual entries
Please state the figure in s⁻¹; there is no need to write the unit.

Problem: Requested read-out: koff. Entry: VHH Z70 (VHH, E4-1 with G12V, P16S, T81M and W114G; It may be the form actually produced from pHEN2; also called single domain antibody Z70; optimized VHH Z70) VHH: EVQLQASGGVFVQSGGSLRLSCAASGATSTFDGMGWFRQAPGKEREFVSAISYEQGSYTYYADSVKGRFTISRDNSKNMVYLQMNSLRAEDTATYYCAPAYEGDLYAFDSYGGQGTQVTVSS
Solution: 0.00267

Problem: Requested read-out: koff. Entry: VHH Mut1 (VHH, Variant of Z70; also called VH Mut1) VHH: EVQLQASGGVFVQSGGSLRLSCAASGATSTFDGMGWFRQAPGKEREFVSAISYEQGSYTYYADSVKGRFTISRDNSKNMVYLQMNSLRAEDTATYYCAPAYEGDLYAFDSYGEQGTQVTVSS
Solution: 0.00242

Problem: Requested read-out: koff. Entry: VHH Mut12 (VHH, Variant of Z70; also called VH Mut12) VHH: AEVQLQASGGVFVQSGGSLRLCCAASGATSTFDGMGWFRQAPGKEREFVSAISYEQGSYTYYADSVKGRFTISRDNSKNMVYLQMNSLRAEDTATYYCAPAYEGDLYAFDSYGEQGTQVTVSS
Solution: 0.00207
